- test_method_notes: Toxicity in ip dosed NMRI mouse assessed as maximum tolerable dose inducing minimal increase in serum calcium level administered daily for 7 consecutive days measured after day 7 by colorimetric assay
- Format: organism-based
- experimental_conditions: in vivo
attribute_measured: MTD at 7 days (mg/kg/day)
Kindly answer with a numeric value in mg/kg/day, unit omitted.

Measured MTD at 7 days of `C=C1/C(=C\C=C2/CCC[C@]3(C)[C@@H]([C@H](C)CCCC(C)(C)O)CC[C@@H]23)C[C@@H](O)C[C@@H]1O` : 0.0001
